Entries annotated with measured %Inh
- Tested on: YSK1
- Construct: gene STK25
- measurement-context: concentration: 1 μM, replicates: in singlicate; n = 1;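 also: KINOMEscan kinase panel screen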
measured-parameter: %Inh (%)

>>> assay_value("CSc1cccc2c(-c3ccncn3)c(-c3ccc(F)cc3)nn12")
0
>>> assay_value("c1ccc(-c2cnc3nccnn23)cc1")
0
>>> assay_value("COc1cc(Nc2ncc3c(C)nc(-c4cc5ccccc5[nH]4)n3n2)cc(OC)c1OC")
0
>>> assay_value("COc1ccc(Nc2nccc(NCCNC(=O)c3cc4ccccc4s3)n2)cc1")
0
>>> assay_value("CCCCc1nn2ncccc2c1-c1ccnc(Nc2ccc(N3CCN(C)CC3)cc2)n1")
0
>>> assay_value("CNC(=O)c1ccccc1Nc1nc(Nc2ccc(N3CCOCC3)cc2)ncc1Cl.Cl")
68
>>> assay_value("COc1cccc(C(=O)Nc2cccc(Oc3ccc4nc(NC(=O)C5CC5)cn4n3)c2)c1")
0
>>> assay_value("CN1CCN(CCCNc2nccc(-c3c(-c4ccc(F)cc4)nn4cc(C(F)(F)F)ccc34)n2)CC1")
0
>>> assay_value("CN1CCN(Cc2cccc(-c3ccc4c(Nc5ccc(Oc6ccccc6)cc5)ccnc4c3)c2)CC1")
12

* * *

- Tested on: CSNK1A1L
- measurement-context: concentration: 1 μM, replicates: in singlicate; n = 1
measured-parameter: %Inh (%)

>>> assay_value("CN(c1ccc(NC(=O)Nc2cc(C(F)(F)F)ccc2F)cc1)c1ccnc(Nc2ccc(S(N)(=O)=O)cc2)n1")
9
>>> assay_value("O=C(Nc1n[nH]c2nc(-c3ccc(O)cc3)ccc12)C1CC1")
10
>>> assay_value("CCS(=O)(=O)c1ccc(OC)c(Nc2nccc(-c3c(-c4cccc(NC(=O)c5c(F)cccc5F)c4)nn4ncccc34)n2)c1")
0
>>> assay_value("COc1ccc(Nc2nccc(NCCNC(=O)c3cc4ccccc4s3)n2)cc1")
0
>>> assay_value("O=C(Nc1cccc(Oc2ccc3nc(NC(=O)C4CC4)cn3n2)c1)c1ccccc1C(F)(F)F")
0
>>> assay_value("Fc1ccc(-c2ncn(C3CCNCC3)c2-c2ccnc(Oc3ccc(-c4ccccc4)cc3)n2)cc1")
71
>>> assay_value("COc1cc(Nc2nccc(-c3c(-c4cccc(NC(=O)c5c(F)cccc5F)c4)nn4ncccc34)n2)cc(OC)c1OC")
7
>>> assay_value("c1ccc(-c2n[nH]cc2Nc2ccnc3ccccc23)nc1")
20

* * *

- System: EPHA6
- measurement-context: concentration: 1 μM, replicates: in singlicate; n = 1
# label = Fulfilled if %Inh >= 20% else Not fulfilled

>>> label("Nc1ncc(-c2cccnc2)c2scc(-c3ccc4c(c3)CCN4C(=O)Cc3ccccc3)c12")
"Not fulfilled"
>>> label("O=C(Nc1n[nH]c2cc(-c3ccoc3)ccc12)C1CC1")
"Not fulfilled"
>>> label("COc1cc(Nc2nccc(-c3c(-c4cccc(NC(=O)c5c(F)cccc5F)c4)nn4ncccc34)n2)cc(OC)c1OC")
"Fulfilled"
>>> label("Cc1ccc(C(=O)Nc2ccc(Nc3ccnc4cc(-c5nccs5)ccc34)cc2O)cc1.Cl")
"Not fulfilled"
>>> label("Clc1ccc(-c2nn3ncccc3c2-c2ccnc(Nc3ccc4c(c3)OCCO4)n2)cc1")
"Fulfilled"
>>> label("Nc1ncc(-c2ccc3nccc(-c4ccncc4)c3c2)cc1S(=O)(=O)N1CCOCC1")
"Not fulfilled"
>>> label("COC(=O)Nc1nc2ccc(Oc3ccc(NC(=O)Nc4cc(C(F)(F)F)ccc4F)cc3)cc2n1C.Cl")
"Fulfilled"
>>> label("CSc1cccc2c(-c3ccncn3)c(-c3ccc(F)cc3)nn12")
"Not fulfilled"
